Cited source: patent US20240207421A1

Below, each of the substances is paired with its reported Count value.
- measured_target: Human MPZ (human) (UniProt P25189)
- Sequence (P25189 30-153 limits assumed): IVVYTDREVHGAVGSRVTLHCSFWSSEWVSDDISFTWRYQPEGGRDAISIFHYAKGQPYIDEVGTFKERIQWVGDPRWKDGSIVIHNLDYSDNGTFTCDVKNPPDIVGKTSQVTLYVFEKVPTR
- assay_overview: phage display, NGS count

{"columns": ["substance", "measured_target", "Count"],
 "data": [
  ["FRVTQTA (peptide)", "Human MPZ (human) (UniProt P25189)", 41],
  ["LPNANNL (peptide)", "Human MPZ (human) (UniProt P25189)", 41],
  ["GGSKVWG (peptide)", "Human MPZ (human) (UniProt P25189)", 40],
  ["FSTTGRG (peptide)", "Human MPZ (human) (UniProt P25189)", 39],
  ["SYLPPFI (peptide)", "Human MPZ (human) (UniProt P25189)", 41],
  ["WPRPIQI (peptide)", "Human MPZ (human) (UniProt P25189)", 41],
  ["AWTMRAS (peptide)", "Human MPZ (human) (UniProt P25189)", 39],
  ["GLWRHTM (peptide)", "Human MPZ (human) (UniProt P25189)", 40],
  ["TLLHYSA (peptide)", "Human MPZ (human) (UniProt P25189)", 40],
  ["YEGERGA (peptide)", "Human MPZ (human) (UniProt P25189)", 39],
  ["SETESYM (peptide)", "Human MPZ (human) (UniProt P25189)", 41],
  ["SPNTNSH (peptide)", "Human MPZ (human) (UniProt P25189)", 40]
]}
